These entries and their values trace back to patent US20030068675.

- testTarget: ZFP SBS#337 (synthetic)
- Sequence (chain, as listed by the source): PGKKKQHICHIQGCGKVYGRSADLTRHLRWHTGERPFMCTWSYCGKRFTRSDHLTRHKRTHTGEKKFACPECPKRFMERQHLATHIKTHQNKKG
- testMethodNotes: EMSA
- reportedConditions: tags: MBP fusion
endpointLabel: Kd (nM)
Give the value, in units of nM, as a plain number.

Kd reported for this binder TGCGGGGCAA (dsDNA) DNA 1: TGCGGGGCAA DNA 2: TTGCCCCGCA : 24
